For Caspase-7 (Homo sapiens, UniProt P55210), measured IC50 is reported for the entries below.

Below, 6 molecules whose answers are already recorded.
O=C1C(=O)N(Cc2cn(CCF)nn2)c2ccc(S(=O)(=O)N3CC[C@H]3COc3cccnc3)cc21 :: 0.0061 µM
N#CC(C#N)=C1C(=O)N(Cc2ccc(OCCF)cc2)c2ccc(S(=O)(=O)N3CC[C@H]3COc3ccccc3)cc21 :: 0.292 µM
O=C1C(=O)N(Cc2ccc(OCCF)cc2)c2ccc(S(=O)(=O)N3CCC[C@H]3COc3cccnc3)cc21 :: 0.0113 µM
O=C1C(=O)N(Cc2cn(CCF)nn2)c2ccc(S(=O)(=O)N3CCC[C@H]3COc3ccccc3)cc21 :: 0.0124 µM
O=C1C(=O)N(Cc2ccc(OCCOCCOCCF)cc2)c2ccc(S(=O)(=O)N3CC[C@H]3COc3ccccc3)cc21 :: 0.0192 µM
COc1ccc(CN2C(=O)C(=O)c3cc(S(=O)(=O)N4CC[C@H]4COc4cccnc4)ccc32)cc1 :: 0.0102 µM

// query # lookup: IC50 of O=C1C(=O)N(Cc2ccc(OCCF)cc2)c2ccc(S(=O)(=O)N3CCC[C@H]3COc3ccc(F)cc3F)cc21
// result 0.0123 µM

// query Entry COc1ccc(CN2C(=O)C(=C(C#N)C#N)c3cc(S(=O)(=O)N4CC[C@H]4COc4cccnc4)ccc32)cc1 please
// result 0.05 µM

// query Entry O=C1C(=O)N(Cc2ccc(OCCOCCF)cc2)c2ccc(S(=O)(=O)N3CC[C@H]3COc3ccccc3)cc21 please
// result 0.0289 µM

// query Entry O=C1C(=O)N(Cc2ccc(OCCF)cc2)c2ccc(S(=O)(=O)N3CC[C@H]3COc3cccnc3)cc21 please
// result 0.0176 µM

====

This listing pairs compounds with measured pEC50.
targetUnderTest: UniProt:P42574
experiment: Inhibition of staurosporine induced activation of caspase 3 activation in human Hela cells assessed as hydrolysis of Z-DEVD-R110 substrate by microplate fluorescence assay
As a rule, pEC50 stands for the negative log10 of the concentration, concentration in M.

Below, 4 compounds whose answers are already recorded.
O=C1C(=O)N(Cc2ccc(OCCOCCF)cc2)c2ccc(S(=O)(=O)N3CCC[C@H]3COc3ccccc3)cc21 :: 5.77
O=C1C(=O)N(Cc2ccc(OCCOCCOCCF)cc2)c2ccc(S(=O)(=O)N3CCC[C@H]3COc3ccccc3)cc21 :: 5.89
O=C1Nc2ccc(S(=O)(=O)N3CCC[C@H]3COc3ccccc3)cc2C1=O :: 4.94
O=C1C(=O)N(Cc2ccccc2)c2ccc(S(=O)(=O)N3CC[C@H]3COc3ccccc3)cc21 :: 5.55

// query # lookup: pEC50 of O=C1C(=O)N(Cc2ccc(OCCF)cc2)c2ccc(S(=O)(=O)N3CCC[C@H]3COc3ccccc3)cc21
// result 5.35

====

targetUnderTest: Caspase-3 (Homo sapiens)
Sequence (P42574 whole entry): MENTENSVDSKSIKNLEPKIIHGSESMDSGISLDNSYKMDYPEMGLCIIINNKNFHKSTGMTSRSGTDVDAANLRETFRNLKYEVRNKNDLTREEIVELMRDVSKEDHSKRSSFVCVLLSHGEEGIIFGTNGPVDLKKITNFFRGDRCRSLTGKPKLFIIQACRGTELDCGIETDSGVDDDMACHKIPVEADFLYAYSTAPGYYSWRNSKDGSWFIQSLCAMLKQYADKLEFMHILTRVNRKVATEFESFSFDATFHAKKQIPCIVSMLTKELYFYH
experiment: Inhibition of human caspase 3 by fluorometric assay
endpointLabel: IC50 (nM)
State just the number; it will be interpreted in nM.

Below, 3 molecules whose answers are already recorded.
O=C1C(=O)N(Cc2cn(CCF)nn2)c2ccc(S(=O)(=O)N3CC[C@H]3COc3ccc(F)cc3F)cc21 :: 13.4
COc1ccc(CN2C(=O)C(=C(C#N)C#N)c3cc(S(=O)(=O)N4CC[C@H]4COc4cccnc4)ccc32)cc1 :: 6
O=C1C(=O)N(Cc2cn(CCF)nn2)c2ccc(S(=O)(=O)N3CCC[C@H]3COc3ccccc3)cc21 :: 12.2

Now look at this entry.
// query Short answer please: IC50, Caspase-3 (Homo sapiens), entry O=C1C(=O)N(Cc2ccc(OCCF)cc2)c2ccc(S(=O)(=O)N3CCC[C@H]3COc3ccc(F)cc3F)cc21
// result 15.2
